# Test system: Vero E6
# Procedure summary: cell viability relative to DMSO; higher = less toxic
# Protocol conditions: 72 h; 1000 nM
Consider the following compounds; for each one, report its cell viability.
Answers are plain numbers, in %.

Worked cases, cell viability given:
So what does the record say about cell viability for "CC(=O)N(O)C/C=C/c1cccc(Oc2ccccc2)c1" ?
95.2

So what does the record say about cell viability for CC(C)=CCC[C@](C)(O[C@@H]1O[C@H](CO)[C@@H](O)[C@H](O)[C@H]1O)[C@H]1CC[C@]2(C)[C@@H]1[C@H](O)C[C@@H]1[C@@]3(C)CC[C@H](O)C(C)(C)[C@@H]3CC[C@]12C [ginsenoside-C-K] ?
98.4

So what does the record say about cell viability for "Nc1nnc(Sc2ncc([N+](=O)[O-])s2)s1" ?
95.6

So what does the record say about cell viability for "CC(C)c1ccc2c(c1)CC[C@H]1[C@](C)(CN)CCC[C@]21C" ?
97.8

So what does the record say about cell viability for "CN[C@@H]1[C@@H](O)[C@@H](O[C@@H]2[C@@H](O)[C@H](O[C@H]3O[C@H](CN)[C@@H](O)[C@H](O)[C@H]3O)[C@@H](N)C[C@H]2NC(=O)[C@@H](O)CN)OC[C@]1(C)O" ?
95.5

So what does the record say about cell viability for "C1COC(NC(C2CC2)C2CC2)=N1" ?
101

Hi, could you look up cell viability for each item in my list?
1. CCNC(=O)c1n[nH]c(-c2cc(Cl)c(O)cc2O)c1-c1ccc(OC)cc1
2. CC(O)COC[C@H]1O[C@@H]2O[C@H]3[C@H](O)[C@@H](O)[C@@H](O[C@H]4[C@H](O)[C@@H](O)[C@@H](O[C@H]5[C@H](O)[C@@H](O)[C@@H](O[C@H]6[C@H](O)[C@@H](O)[C@@H](O[C@H]7[C@H](O)[C@@H](O)[C@@H](O[C@H]8[C@H](O)[C@@H](O)[C@@H](O[C@H]1[C@H](O)[C@H]2O)O[C@@H]8COCC(C)O)O[C@@H]7COCC(C)O)O[C@@H]6COCC(C)O)O[C@@H]5COCC(C)O)O[C@@H]4COCC(C)O)O[C@@H]3COCC(C)O (stereo partly drawn) [hydroxypropyl-beta-cyclodextrin]
3. CCc1nn(CCO)c(CC)c1Oc1cc(C#N)cc(C#N)c1
4. Cl/C(=C\n1cncn1)c1ccc(Cl)cc1Cl
5. CO/N=C(\C(=O)N[C@@H]1C(=O)N2C(C(=O)[O-])=C(C[n+]3ccn4ncccc43)CS[C@H]12)c1nsc(N)n1
6. O=C(Nc1ccc(F)cc1)N1CCc2ccccc2[C@@H]1c1ccc(C(F)(F)F)cc1
7. CC(C)N(CCC(C(N)=O)(c1ccccc1)c1ccccn1)C(C)C (centres undefined) [disopyramide]
8. CCOC(=O)Nc1ccc(NCc2ccc(F)cc2)nc1N

[78.5, 101, 90.8, 101, 98.7, 103, 97.7, 98.6]

Hi, could you look up cell viability for each item in my list?
1. Cc1onc(-c2ccccc2Cl)c1C(=O)N[C@@H]1C(=O)N2[C@@H]1SC(C)(C)[C@@H]2C(=O)O
2. NC1=NCC2c3ccccc3Cc3ccccc3N12 (centres undefined) [epinastine]
3. Cc1ccc(Cl)c(OCC(O)CNC(C)(C)C)c1 (centres undefined)
4. CN1CC[C@@H]2CN3CCc4cccc(c43)[C@@H]2C1
5. CCOC(=O)[C@H](CCc1ccccc1)N[C@@H](C)C(=O)N1Cc2cc(OC)c(OC)cc2C[C@H]1C(=O)O
6. CCCc1nc(C)c2c(=O)nc(-c3cc(S(=O)(=O)N4CCN(CC)CC4)ccc3OCC)[nH]n12
7. CCN1C[C@]2(COC(=O)c3ccccc3N3C(=O)C[C@H](C)C3=O)CC[C@H](OC)[C@@]34[C@@H]5C[C@H]6[C@H](OC)[C@@H]5[C@](O)(C[C@@H]6OC)[C@](O)([C@@H](OC)[C@H]23)[C@@H]14
8. O=C(O)c1ccc(S(=O)(=O)N(Cl)Cl)cc1

98.2
96
100
92.5
96.9
106
102
97

* * *

# System: HepG2
# Procedure summary: cell viability relative to DMSO; higher = less toxic
# Protocol conditions: 72 h; 1000 nM
Value kind: cell viability (%)
Numbers only, in %.

Worked cases, cell viability given:
So what does the record say about cell viability for "CCCCC1(COC(=O)CCC(=O)O)C(=O)N(c2ccccc2)N(c2ccccc2)C1=O" ?
103

So what does the record say about cell viability for "O=C(Nc1cc(-c2ccccc2)nn1-c1ccccc1F)c1ccc([N+](=O)[O-])cc1" ?
89.6

So what does the record say about cell viability for "COc1ccc(CCN2CCN(CCCc3ccccc3)CC2)cc1OC" ?
98.4

Hi, could you look up cell viability for each item in my list?
1. Cc1cc(CN2CCN(c3c(Br)cnc4nc(-c5ccc(N6CCN(C)CC6)cc5)[nH]c34)CC2)no1
2. O=C1OCCN1/N=C/c1ccc([N+](=O)[O-])o1
3. Cc1ccc(C(=O)N(CCCN)[C@@H](c2nc3cc(Cl)ccc3c(=O)n2Cc2ccccc2)C(C)C)cc1
4. CN(C)N(C)C(=O)[C@@]1(Cc2ccccc2)CCCN(C(=O)[C@@H](Cc2c[nH]c3ccccc23)NC(=O)C(C)(C)N)C1
5. COc1cccc(-c2cc(=O)c3ccccc3o2)c1N

1. 65.6
2. 111
3. 40
4. 102
5. 91.8

* * *

# Tested on: Calu-3
# Procedure summary: cell viability relative to DMSO; higher = less toxic
# Protocol conditions: 72 h; 10 nM
Consider the following compounds; for each one, report its cell viability.
Give bare numbers, in %.

Worked cases, cell viability given:
So what does the record say about cell viability for CC(C)N(CCC(C(N)=O)(c1ccccc1)c1ccccn1)C(C)C (configuration not stated) [disopyramide] ?
93.2

So what does the record say about cell viability for C[C@@H]1NC(=O)[C@@H](N)CNC(=O)[C@H](C2CCNC(=N)N2)NC(=O)/C(=C/NC(N)=O)NC(=O)[C@H](CNC(=O)CC(N)CCCN)NC1=O.N=C1NCC[C@H]([C@@H]2NC(=O)/C(=C/NC(N)=O)NC(=O)[C@H](CNC(=O)C[C@@H](N)CCCN)NC(=O)[C@H](CO)NC(=O)[C@@H](N)CNC2=O)N1 [capreomycin] ?
100

So what does the record say about cell viability for CC(=O)Oc1ccccc1C(=O)Oc1cccc(CO[N+](=O)[O-])c1 [NO-ASA] ?
101

Hi, could you look up cell viability for each item in my list?
1. O=C(Nc1ccccc1)N1CCC(Cc2cnc3ccccc3c2)CC1 [PF-750]
2. Clc1ccc(-c2nc3sccn3c2/C=N/OCc2ccc(Cl)c(Cl)c2)cc1 [CITCO]
3. CN1[C@@H]2CC[C@H]1C[C@@H](OC1c3ccccc3CCc3ccccc31)C2 [deptropine]
4. Cc1cc(C)c(N(Cc2ccccc2)S(=O)(=O)c2ccc(OCCNC(=O)c3cc4ccccc4o3)cc2)c(C(=O)NO)c1

[88.1, 88.4, 107, 103]

* * *

Consider the following compounds; for each one, report its cell viability.
# Test system: Vero E6
# Procedure summary: cell viability relative to DMSO; higher = less toxic
# Protocol conditions: 72 h; 100 nM
Give bare numbers, in %.

Worked cases, cell viability given:
So what does the record say about cell viability for "C[C@]12CC[C@H]3[C@@H](CCC4=CC(=O)CC[C@@]43C)[C@@H]1CC[C@@H]2C(=O)CO" ?
93.6

So what does the record say about cell viability for CN(C)CCC(c1ccccc1)c1ccccn1 (stereo not given) ?
101

So what does the record say about cell viability for CNC(=O)CN(CCN(CCN(CC(=O)[O-])CC(=O)NC)CC(=O)[O-])CC(=O)[O-].[Gd+3] [gadodiamide] ?
98.5

Hi, could you look up cell viability for each item in my list?
1. CCCCCCCC/C=C\CCCCCCCC(=O)N[C@@H](CO)Cc1ccc(O)cc1
2. Cc1ncc([N+](=O)[O-])n1CC(O)CN1CCOCC1 (stereo not given)

97.4
96.3

* * *

# Tested on: HepG2
# Procedure summary: cell viability relative to DMSO; higher = less toxic
# Protocol conditions: 72 h; 1 nM
Value kind: cell viability (%)
Give bare numbers, in %.

Hi, could you look up cell viability for each item in my list?
1. CO/N=C(\C(=O)N[C@@H]1C(=O)N2C(C(=O)[O-])=C(C[n+]3ccn4ncccc43)CS[C@H]12)c1nsc(N)n1
2. Nc1nc2c(cnn2CCc2ccccc2)c2nc(-c3ccco3)nn12
3. OB1OCc2cc(F)ccc21
4. CCCCC[C@H](O)/C=C/[C@H]1[C@H](O)CC(=O)[C@@H]1C/C=C\CCCC(=O)O
5. Cc1nc2ccc(NC(=O)Nc3ccnc4cccnc34)cc2o1

1. 89.7
2. 97.7
3. 92.9
4. 99.8
5. 98.9

* * *

Consider the following molecules; for each one, report its cell viability.
# Test system: Caco-2
# Procedure summary: cell viability relative to DMSO; higher = less toxic
# Protocol conditions: 72 h; 1000 nM
Numbers only, in %.

Worked cases, cell viability given:
So what does the record say about cell viability for "O=C(O)C[C@H]1CC[C@H](c2ccc(-c3ccc(Nc4ccc(C(F)(F)F)nc4)cn3)cc2)CC1" ?
100

So what does the record say about cell viability for "Cc1nc2ccc(NC(=O)Nc3ccnc4cccnc34)cc2o1" ?
89.6

So what does the record say about cell viability for "Nc1nccc(Oc2ccc(NC(=O)c3c[nH]cc(-c4ccc(F)cc4)c3=O)cc2F)c1Cl" ?
104

So what does the record say about cell viability for "COc1cccc(OC)c1C(=O)N[C@@H]1C(=O)N2[C@@H]1SC(C)(C)[C@@H]2C(=O)O" ?
91.4

So what does the record say about cell viability for "CCc1cc(C(C)=O)c(O)cc1OCCCCCC(C)(C)c1nn[nH]n1" ?
107

So what does the record say about cell viability for "Cc1cc(O)c2c(c1)C(=O)c1cccc(O)c1C2=O" ?
92.5

Hi, could you look up cell viability for each item in my list?
1. OCCOCCN1CCN(C(c2ccccc2)c2ccc(Cl)cc2)CC1 (centres undefined) [hydroxyzine]
2. CC1(C)CC(=O)c2c(C(F)(F)F)nn(-c3ccc(C(N)=O)c(N[C@H]4CC[C@H](O)CC4)c3)c2C1
3. C=CCn1c(=O)c2cnc(Nc3ccc(N4CCN(C)CC4)cc3)nc2n1-c1cccc(C(C)(C)O)n1
4. Nc1ccn([C@H]2CC[C@@H](CO)O2)c(=O)n1
5. O=C(Nc1ccc(F)cc1)N1CCc2ccccc2[C@@H]1c1ccc(C(F)(F)F)cc1
6. COc1ccc(-n2[nH]c3c4c(ncc3c2=O)CCCCC4)cc1
7. O=C1NC(=O)c2cc(Nc3ccc(F)cc3)c(Nc3ccc(F)cc3)cc21
8. Cc1cc(NC(=O)C2=C(O)c3ccccc3S(=O)(=O)N2C)no1

[101, 34.4, 35.4, 93.5, 98.7, 107, 93.3, 96.2]
